Recorded PBMC binding (%) values for a group of binders are listed next.
# target-of-assay: TCR Vβ17 on T cells of PBMCs
# Sequence (A0A075B6N1 22-114): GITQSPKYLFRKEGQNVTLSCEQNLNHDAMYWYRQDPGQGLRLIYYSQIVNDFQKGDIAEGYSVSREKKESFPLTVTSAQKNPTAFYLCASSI
# protocol-notes: flow cytometry on PBMCs, percent of cells stained
Entry rule: numbers only, all in %.

binder	PBMC binding (%)
21G11A8 (antibody, V domains shown) VH: EVQLQESGPDLKKPGETVKISCKASGYTFTTYGMNWVKQAPGKGLKWMGYLNTYSGVSTYADDFKGRFAFSLETSANTAYLQINNLRNDDTATYFCARWGNYGAMDYWGQGTSVTVSS VL: DIKMTQSPLSLPVSLGDQASISCRSSQSIVRSNGFTYLEWYLQKPGQSPELLIYKVSNRFSGVPDRFSGSGSGTDFTLKISRVEAEDLGVYYCFQSSHVPRTFGGGTKLEIK	2.96
23A9F7 (antibody, V domains shown) VH: EVQLQESGPGLVKPSQSLSLTCSVTGYSITSGYYWNWIRQFLGNKLEWMGYITYDGSNNYNPSLKDRISITRDTSKNQFFLNLNSVTTDDTATYYCARGGGYVPVWGTGTTVTVSS VL: DVQMTQSPAFLSVSPGERVSFSCRASQNIGTSIHWYQQRTNGSPRLLIKYASESISGIPSRFSGSGSGTDFTLSINSVESEDFADYYCHQSHNWPTTFGAGTKLELK	2.32

// below: PBMC binding (%) requested for another binder
Q: Bench note: what PBMC binding (%) did 23A9C10 (antibody, V domains shown) VH: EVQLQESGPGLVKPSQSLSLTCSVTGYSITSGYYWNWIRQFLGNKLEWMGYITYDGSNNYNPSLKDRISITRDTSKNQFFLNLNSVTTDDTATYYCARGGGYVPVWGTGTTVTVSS VL: DIQMTQSPAFLSVSPGERVSFSCRASQNIGTSIHWYQQRTNGSPRLLIKYASESISGIPSRFSGSGSGTDFTLSINSVESEDFADYYCHQSHNWPTTFGAGTKLELK show?
Result: 3.2
